- System: H358 cells
- testMethodNotes: Inhibition of proliferation of H358 cells (CellTiter-Glo 3D)
- Format: cell-based
- appliedConditions: Homo sapiens, NCI-H358, low adsorption plate, 120 h
Listing of entries alongside the reported IC50.
Answer format: numeric, nM implied, no suffix.

Reference set (6 entries):
Cc1nc(N[C@H](C)c2cccc3c2OCC3(F)F)c2cc([C@]3(O)CC[C@H](O)CC3)c(=O)[nH]c2n1 (racemic) [Example 25-p2]: 1020
Cc1nc(N[C@H](C)c2cccc(C(F)F)c2F)c2cc(C3CCN(C(=O)CC#N)CC3)c(=O)[nH]c2n1 [Example 17]: 65
Cc1nc(N[C@H](C)c2cccc(C(F)F)c2F)c2cc([C@]3(O)CC[C@H](O)CC3)c(=O)n(C)c2n1 [Example 28-p2]: 716
CNC(=O)C1CCC(O)(c2cc3c(N[C@H](C)c4cccc(C(F)F)c4F)nc(C)nc3[nH]c2=O)CC1 (stereo partly shown) [Example 29]: 545
Cc1nc(N[C@H](C)c2cccc(C(F)F)c2F)c2cc(N3CCOCC3)c(=O)[nH]c2n1 [Example 16]: 97
Cc1nc(N[C@H](C)c2cccc(C(F)F)c2F)c2cc(C3(O)CCN(C(=O)CC#N)CC3)c(=O)[nH]c2n1 [Example 21]: 62

Summary: COCC(=O)N1CCC(c2cc3c(N[C@H](C)c4cccc(C(F)F)c4F)nc(C)nc3[nH]c2=O)CC1 [Example 20] , H358 cells, IC50 = 118

----------
- Test system: ERK phosphorylation of H358 cells
- testMethodNotes: Inhibition of ERK phosphorylation of H358 cells (HTRF pERK/total ERK)
- Type: cell-based
- appliedConditions: Homo sapiens, NCI-H358, 1 h incubation, pERK/total ERK ratio
- Protocol: This experiment is intended to evaluate the inhibition effect of the compounds of the present disclosure on the KRAS target (containing the G12C mutation) according to IC50 by determining the inhibition effect of the compounds on ERK phosphorylation of the cells. […] IC50 values for inhibitory activity of the compounds were calculated using Graphpad Prism software based on compound concentrations and pERK/total ERK ratio.
Measured IC50, listed per entry.
Number only, in nM; omit the unit.

Reference set (3 entries):
Cc1nc(N[C@H](C)c2cccc3c2OCC3(F)F)c2cc([C@]3(O)CC[C@@H](O)CC3)c(=O)[nH]c2n1 (racemic) [Example 25-p1]: 101
Cc1nc(N[C@H](C)c2cccc(C(F)(F)CO)c2F)c2cc(C3=CCOCC3)c(=O)[nH]c2n1: 59
Cc1nc(N[C@H](C)c2cccc3c2OCC3(F)F)c2cc([C@]3(O)CC[C@H](O)CC3)c(=O)[nH]c2n1 (racemic) [Example 25-p2]: 489

Moving on to the next compound.
# compound Cc1nc(N[C@H](C)c2cccc(C(F)F)c2F)c2cc(OC3CN(C(=O)CF)C3)c(=O)[nH]c2n1 ; its IC50 = 258

----------
- targetOrTestSystem: interaction between the KRAS protein subtype G12D and the SOS1 protein (Homo sapiens)
- Construct: GST-TEV-SOS1(564-1049) (Viva Biotech, SOS1-191010); purchased SOS1: Viva Biotech; KRAS: Shanghai Panchao Biotechnology Co., Ltd. SOS1-191010
- Sequence (Q07889 564-1049, stated change not applied): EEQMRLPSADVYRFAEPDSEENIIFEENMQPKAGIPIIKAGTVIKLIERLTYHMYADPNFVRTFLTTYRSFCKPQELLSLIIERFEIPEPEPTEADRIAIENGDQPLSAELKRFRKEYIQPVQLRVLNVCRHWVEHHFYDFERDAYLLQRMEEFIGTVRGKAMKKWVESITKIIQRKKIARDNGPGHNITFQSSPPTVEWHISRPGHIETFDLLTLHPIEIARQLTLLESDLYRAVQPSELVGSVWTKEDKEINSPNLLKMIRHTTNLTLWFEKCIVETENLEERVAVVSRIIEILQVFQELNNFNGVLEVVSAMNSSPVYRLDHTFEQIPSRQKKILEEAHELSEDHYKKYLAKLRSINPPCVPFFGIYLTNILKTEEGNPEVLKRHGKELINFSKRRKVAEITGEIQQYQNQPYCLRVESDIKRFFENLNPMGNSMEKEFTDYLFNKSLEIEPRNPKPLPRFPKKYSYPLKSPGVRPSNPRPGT
- testMethodNotes: Inhibition of the interaction between KRAS G12D and SOS1 protein (AlphaLISA/AlphaScreen)
- Format: binding
- appliedConditions: KRAS G12D + GST-TEV-SOS1(564-1049) + GDP
measureName: IC50 (nM)
Numeric answer only, unit nM assumed.

Below, each entry is followed by its recorded IC50 result.
CC(=O)N1CC[C@H](Oc2cc3c(N[C@H](C)c4cccc(C(F)F)c4F)nc(C)nc3[nH]c2=O)C1 [Example 24]: 49
CNC(=O)C1CCC(O)(c2cc3c(N[C@H](C)c4cccc(C(F)F)c4F)nc(C)nc3[nH]c2=O)CC1 (stereo partly drawn) [Example 29]: 91

Proceed to the following item.
Please fill in: IC50 reported for Cc1nc(N[C@H](C)c2cccc(C(F)F)c2F)c2cc(C3(O)CCOCC3)c(=O)[nH]c2n1 [Example 19] = 47
